Observation type: CH4 permeability (Barrer)

| Compound | Measurement unit | Value observed |
| --- | --- | --- |
| *c1ccc(C2(c3ccc(N4C(=O)c5ccc(C(c6ccc7c(c6)C(=O)N(*)C7=O)(C(F)(F)F)C(F)(F)F)cc5C4=O)cc3)c3ccccc3-c3ccccc32)cc1 (repeat unit) | Barrer | 1.96 |
| *Oc1ccc(S(=O)(=O)c2ccc(Oc3ccc4cc(*)ccc4c3)cc2)cc1 (repeat unit) | Barrer | 0.0366 |
| *Nc1ccc(C(C)(C)c2ccc(NC(=O)c3ccc(Oc4cc(C(C)(C)C)c(Oc5ccc(C(*)=O)cc5)cc4C(C)(C)C)cc3)c(C)c2)cc1C (repeat unit) | Barrer | 0.9 |
| *Oc1ccc(C(=O)c2ccc(-c3ccc(C(=O)c4ccc(Oc5ccc(S(=O)(=O)c6ccc(*)cc6)cc5)cc4)cc3)cc2)cc1 (repeat unit) | Barrer | 0.12 |
| *CC(*)c1ccccc1 (repeat unit) | Barrer | 0.785 |
| *c1c(C)c(C)c(N2C(=O)c3ccc(Oc4cc(C(C)(C)C)ccc4Oc4ccc5c(c4)C(=O)N(*)C5=O)cc3C2=O)c(C)c1C (repeat unit) | Barrer | 3.1 |
| *c1cccc2c(-n3c(=O)c4cc5oc6cc7c(cc6oc5cc4c3=O)C3(CC(C)(C)c4cc5oc6cc8c(=O)n(*)c(=O)c8cc6oc5cc43)CC7(C)C)cccc12 (repeat unit) | Barrer | 27 |
| *c1c(C)cc(Cc2cc(C)c(N3C(=O)c4ccc(-c5ccc6c(c5)C(=O)N(*)C6=O)cc4C3=O)c(C)c2)cc1C (repeat unit) | Barrer | 0.818 |
| *CC=C(C*)[Si](C)(C)OC(C)C (repeat unit) | Barrer | 3.1 |
| *CC(*)c1ccc(S(=O)(=O)[O-])cc1 (repeat unit) | Barrer | 0.119 |
| *Oc1cc2c(cc1O*)C1(c3ccccc3-c3cc4c(cc31)Oc1c(C#N)c(*)c(*)c(C#N)c1O4)c1cc(C)c(C)cc1-2 (repeat unit) | Barrer | 563 |
| *c1cc2c(cc1C)-c1cc(C)c(N3C(=O)c4cc5c(cc4C3=O)S(=O)(=O)c3cc4c(cc3S5(=O)=O)C(=O)N(*)C4=O)cc1S2(=O)=O (repeat unit) | Barrer | 0.59 |
| *Nc1c(C)cc(Cc2cc(C)c(NC(=O)c3ccc(Oc4cc(C(C)(C)C)c(Oc5ccc(C(*)=O)cc5)cc4C(C)(C)C)cc3)c(C(C)C)c2)cc1C(C)C (repeat unit) | Barrer | 1.21 |
| *c1ccc(-c2ccc(Oc3ccc4c(c3)C3(CC4(C)C)CC(C)(C)c4ccc(Oc5ccc(-c6ccc(N7C(=O)c8ccc(Oc9ccc(C(C)(C)c%10ccc(Oc%11ccc%12c(c%11)C(=O)N(*)C%12=O)cc%10)cc9)cc8C7=O)cc6)cc5C(F)(F)F)cc43)c(C(F)(F)F)c2)cc1 (repeat unit) | Barrer | 0.35 |
| *C(C)=C(*)CCCCCC (repeat unit) | Barrer | 64 |
